Reference for the values: ChEMBL document CHEMBL1123153

IC50 values for the molecules below.
Test system: Raji
Experiment: Cytostatic activity against proliferation of Raji/TK cells
Type: functional
Conditions: Homo sapiens, read-out: ID50 (the source's name)

compound.smiles: CCCCCCc1cn([C@H]2C[C@@H]3OP(=O)(O)OC[C@H]3O2)c(=O)[nH]c1=O.N
target.under.test: Raji
IC50: > 500 µg/mL
//
compound.smiles: CCc1cn([C@H]2C[C@@H]3OP(=O)(O)OC[C@H]3O2)c(=O)[nH]c1=O.N
target.under.test: Raji
IC50: > 500 µg/mL
//
compound.smiles: CCCCc1cn([C@H]2C[C@H](O)[C@@H](CO)O2)c(=O)[nH]c1=O
target.under.test: Raji
IC50: > 500 µg/mL
//
compound.smiles: CCCCCc1cn([C@H]2C[C@@H]3OP(=O)(O)OC[C@H]3O2)c(=O)[nH]c1=O.N
target.under.test: Raji
IC50: > 500 µg/mL
//
compound.smiles: CCc1cn([C@H]2C[C@H](O)[C@@H](CO)O2)c(=O)[nH]c1=O
target.under.test: Raji
IC50: > 500 µg/mL
